# Target: Lysine-specific demethylase 5B (Homo sapiens, UniProt Q9UGL1)
# Sequence (Q9UGL1 whole entry): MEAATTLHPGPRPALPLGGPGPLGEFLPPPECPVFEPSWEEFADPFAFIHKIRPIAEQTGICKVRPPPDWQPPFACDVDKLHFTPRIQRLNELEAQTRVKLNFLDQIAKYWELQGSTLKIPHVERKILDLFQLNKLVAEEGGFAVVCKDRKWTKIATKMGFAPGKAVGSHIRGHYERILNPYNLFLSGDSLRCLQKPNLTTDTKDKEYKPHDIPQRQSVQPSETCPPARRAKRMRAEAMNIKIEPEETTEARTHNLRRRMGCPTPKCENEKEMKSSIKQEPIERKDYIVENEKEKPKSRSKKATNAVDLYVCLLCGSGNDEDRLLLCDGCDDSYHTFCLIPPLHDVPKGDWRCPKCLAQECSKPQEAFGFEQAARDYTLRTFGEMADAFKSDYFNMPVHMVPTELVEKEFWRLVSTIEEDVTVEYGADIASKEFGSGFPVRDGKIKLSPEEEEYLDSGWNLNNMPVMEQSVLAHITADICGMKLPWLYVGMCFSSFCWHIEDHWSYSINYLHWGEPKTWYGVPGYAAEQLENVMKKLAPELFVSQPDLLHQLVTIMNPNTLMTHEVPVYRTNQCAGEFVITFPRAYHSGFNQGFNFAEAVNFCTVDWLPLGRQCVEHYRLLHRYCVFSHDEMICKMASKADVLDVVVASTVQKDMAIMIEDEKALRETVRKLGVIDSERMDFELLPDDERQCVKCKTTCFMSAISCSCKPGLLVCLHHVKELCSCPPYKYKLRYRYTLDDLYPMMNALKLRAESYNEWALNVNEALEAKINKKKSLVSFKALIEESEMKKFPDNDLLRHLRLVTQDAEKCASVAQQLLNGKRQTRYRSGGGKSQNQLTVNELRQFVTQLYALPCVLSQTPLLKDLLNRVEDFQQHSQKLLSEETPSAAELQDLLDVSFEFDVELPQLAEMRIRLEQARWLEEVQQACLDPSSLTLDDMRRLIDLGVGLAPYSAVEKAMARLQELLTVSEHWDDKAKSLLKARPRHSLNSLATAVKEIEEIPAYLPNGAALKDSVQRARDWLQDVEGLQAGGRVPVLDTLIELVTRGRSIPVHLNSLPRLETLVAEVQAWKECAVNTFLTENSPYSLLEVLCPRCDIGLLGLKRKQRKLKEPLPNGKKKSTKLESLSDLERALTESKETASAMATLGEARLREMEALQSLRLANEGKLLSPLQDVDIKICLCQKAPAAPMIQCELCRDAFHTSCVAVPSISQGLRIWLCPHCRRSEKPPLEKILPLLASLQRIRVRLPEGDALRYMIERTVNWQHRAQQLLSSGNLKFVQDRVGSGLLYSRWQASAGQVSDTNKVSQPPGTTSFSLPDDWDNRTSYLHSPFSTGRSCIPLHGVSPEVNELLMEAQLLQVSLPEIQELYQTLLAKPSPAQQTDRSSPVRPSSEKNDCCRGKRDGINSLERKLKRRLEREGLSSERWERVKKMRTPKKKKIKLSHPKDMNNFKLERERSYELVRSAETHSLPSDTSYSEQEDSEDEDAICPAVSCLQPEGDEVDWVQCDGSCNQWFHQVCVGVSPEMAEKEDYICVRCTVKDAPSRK
# Assay: Inhibition of human recombinant KDM5B assessed as decarboxylation of [1-14C] alphaKG by measuring 14CO2 release using H3K4me3 as substrate incubated for 1 hr
Property measured: IC50 (nM)

Worked set:
Fill in the blank: the reported IC50 of N#Cc1c(O)c(C(=O)CCC(=O)O)nc2cc(-c3ccccc3)ccc12 is ____.
90

# input compound: N#Cc1c(O)c(C(=O)CCC(=O)O)nc2cc(Cc3ccccc3)ccc12 ; wanted: its IC50
240

Could you share which IC50 value was measured for COc1ccc(-c2ccc3c(C#N)c(O)c(C(=O)CCC(=O)O)nc3c2)cc1 ?
220

(A) N#Cc1c(O)c(C(=O)CCC(=O)O)nc2ccc(-c3ccccc3)cc12
(B) N#Cc1c(O)c(C(=O)CCC(=O)O)nc2ccccc12
Select one. Lower IC50: A or B Response format: the label of the selected entry.
B

(P) Cc1cc(C)cc(-c2ccc3c(C#N)c(O)c(C(=O)CCC(=O)O)nc3c2)c1
(Q) Cc1cccc(-c2ccc3c(C#N)c(O)c(C(=O)CCC(=O)O)nc3c2)c1
Between P and Q , which one has the lower reported IC50 value? Please respond with the label that marks your chosen entry.
Q

(a) N#Cc1ccc(-c2cccc3c(C#N)c(O)c(C(=O)CCC(=O)O)nc23)cc1
(b) N#Cc1c(O)c(C(=O)CCC(=O)O)nc2ccc(Cc3ccccc3)cc12
Select one. Lower IC50: a or b Write down the label of the entry you select.
a
